test system: NCI-H460 lung; assay: NCI-60 one-dose screen, 48 h (100 = growth as untreated, 0 = no growth, -100 = all killed); settings: 10 µM unless noted
Compounds without any hit were thinned out: in the full panel of roughly 83,000, 20% have a hit.
Task for the reader: assign each of the following molecules its reported growth.
Numbers only, in %.

Observe how each entry below is paired with its result.
INSERT INTO results (molecule, test_target, endpoint_label, measured_value) VALUES
  ('N#Cc1ccc(O)c(C2=NCC(c3ccccc3)O2)c1 (stereo unspecified)', 'NCI-H460 lung', 'growth', 19.9),
  ('Fc1ccc(CNc2c3ccccc3nc3ccccc23)c(F)c1', 'NCI-H460 lung', 'growth', 20);

// for each molecule in input: emit growth
1. Cc1ccc2c(n1)C(=O)C(Br)=C(C1CCCC1)C2=O
2. O=C(O)c1ccc(-n2cc(/C=N/Nc3ccccc3)c(-c3ccc(F)cc3F)n2)cc1
3. COc1ccccc1NC(=O)N=Nc1c(O)[nH]c2ccccc12
4. CN(C)CC1CCC(CN(C)C)C1=O (stereo unspecified)
5. NC(=O)c1cc(I)ccc1NC(=O)/C=C/c1ccccc1

1. 110
2. 55.3
3. 104
4. 111
5. 1.75

###

test system: SF-268 CNS; test: NCI-60 one-dose screen, 48 h (100 = growth as untreated, 0 = no growth, -100 = all killed); settings: 10 µM unless noted
About 83,000 compounds went through this panel and 20% of them were active in at least one assay; those are over-represented in the sample as a whole.
Outcome label depends on growth relative to 70%: at/above gives 1, below gives 0.

Look over these answered cases.
INSERT INTO assay_data (compound, test_target, category_label) VALUES
  ('O=c1[nH]c(Cc2nc3ccccc3s2)nc2cc(Br)ccc12', 'SF-268 CNS', 0),
  ('Nc1n[nH]c2cccc(C#Cc3cccc(NC(=O)c4cc(F)cc(C(F)(F)F)c4)c3)c12', 'SF-268 CNS', 1),
  ('Cc1cc(=O)oc2cc(OCc3nn4c(Nc5nc6ccccc6s5)c(-c5ccccc5)nc4s3)ccc12', 'SF-268 CNS', 1),
  ('O=C1NC2(Nc3ccccc31)C(=O)Nc1c(Cl)cc(Cl)cc12 (centres undefined)', 'SF-268 CNS', 1),
  ('CN(C)CC1CCC(CN(C)C)C1=O (centres undefined)', 'SF-268 CNS', 1),
  ('C#Cc1c2c(c(OC)c3c1OCO3)[C@H]([C@H]1OC(=O)c3c1ccc(OC)c3OC)N(C)CC2', 'SF-268 CNS', 1),
  ('COc1ccc2c(c1OC)CO[C@@H]2[C@H]1c2c(cc3c(c2OC)OCO3)CCN1S(=O)(=O)c1cn(C)cn1', 'SF-268 CNS', 0);

Read the next record carefully.
Please tell me: is the compound COc1ccc(C(O)c2cc3c(N)c(C(=O)Nc4cccc(Br)c4)sc3nc2C)cc1 (centres undefined) at or over 70% in terms of growth? 0

###

Task for the reader: assign each of the following compounds its reported growth.
test system: M14 melanoma; assay: NCI-60 one-dose screen, 48 h (100 = growth as untreated, 0 = no growth, -100 = all killed); settings: 10 µM unless noted
This is part of a sample that, as a whole, favours compounds with a hit. Of some 83,000 tested, about 20% had one in any assay. The source made the active and inactive calls. Rule for the calls: active = growth percent below 10; inactive = the rest.

Observe how each entry below is paired with its result.
INSERT INTO assay_data (compound, measured_value) VALUES
  ('COc1ccc(C(C)=O)cc1S(=O)(=O)Nc1c(N)nc(SC)[nH]c1=O', '94.8% (inactive)'),
  ('CNC(=O)c1ccccc1Oc1nc(Nc2cc(OC)c(OC)c(OC)c2)ncc1Br', '47.7% (inactive)'),
  ('Cn1ccc(=O)c(C(=O)Nc2nsc3ccc([N+](=O)[O-])cc23)c1', '46.6% (inactive)'),
  ('C#Cc1c2c(c(OC)c3c1OCO3)[C@H]([C@H]1OC(=O)c3c1ccc(OC)c3OC)N(C)CC2', '71.4% (inactive)'),
  ('COC(=O)C1Cc2ccccc2CN1C(=O)c1ccc2c(c1)Cc1ccccc1-2 (stereo not given)', '30.9% [50 µM] (inactive)');

// for each compound in input: emit growth
1. CCN(CC)CC(O)COc1c(Br)c(Br)c(Br)c2c1OC(C)(C)C2 (stereo not given)
2. CN(/C(N)=N/N=C/c1c2ccccc2cc2ccccc12)C1CCCCC1
3. O=C(Nc1ccc(Oc2cccc(Cl)c2)c(Cl)c1)c1cccnc1
4. CC(=O)N1N=C(c2ccc(Nc3nc(Nc4ccccc4)nc(Nc4ccccc4)n3)cc2)CC1c1ccccc1 (stereo not given)
5. Cc1csc(Nc2nc(-c3ccccn3)nc(C(Cl)(Cl)Cl)n2)n1

["41.3% (inactive)", "37.7% (inactive)", "21.8% (inactive)", "84.6% (inactive)", "83.7% (inactive)"]

###

Test system: SK-MEL-5 melanoma
Assay: NCI-60 one-dose screen, 48 h
Conditions: 10 µM unless noted
Method: Growth inhibition of the SK-MEL-5 human tumor cell line is measured as a screen for anti-cancer activity. Cells are grown in 96 well plates and exposed to the test compound for 48 hours. Compounds are tested at a single concentration, which is 10^-5 M for most compounds. The reported endpoint is percent growth (GI% or GIPRCNT), where numbers from 0 - 100% represent growth inhibition, and numbers from -100% - 0 represent cell death. For example, a value of 40 represents 60% growth inhibition. […]
Compounds without any hit were thinned out: in the full panel of roughly 83,000, 20% have a hit. Active and inactive are the calls of the source. How the source made its calls: active means growth percent below 10; inactive means the rest.
Tick one outcome: 1 (yes) (active), 0 (no) (inactive)

What was the test verdict on `O=C(CN1C(=O)S/C(=C\c2ccccc2)C1=O)Nc1ncc(Cc2ccccc2Cl)s1` ? 0 (no)

###

test system: SF-268 CNS; assay: NCI-60 one-dose screen, 48 h; conditions: 10 µM unless noted
This is part of a sample that, as a whole, favours compounds with a hit. Of some 83,000 tested, about 20% had one in any assay. Active and inactive are the calls of the source. The calls were made as follows: active = growth percent below 10; inactive = the rest.
Tick one outcome: active, inactive

Look over these answered cases.
INSERT INTO measurements (molecule, category_label) VALUES
  ('Nc1cc(C(=O)NC[C@H]2CN(c3ccc(N4CCC(C(=O)O)CC4)cc3)C(=O)O2)ccc1Cl', 'inactive'),
  ('COc1cccc(/C=C2\COc3ccc(O)c(O)c3C2=O)c1', 'active'),
  ('COC(=O)Nc1nc2ccc(S(=O)c3ccccc3)cc2[nH]1 (stereo not given)', 'inactive'),
  ('O=C(N/N=C/c1c(Cl)cccc1Cl)c1cccnc1Nc1cccc(C(F)(F)F)c1', 'inactive'),
  ('Oc1c(Br)cc(Br)c2ccc(Cn3cc(-c4ccc(C(F)(F)F)cc4)nn3)nc12', 'inactive');

What was the test verdict on `COc1cc(/C=C/C(=O)c2ccc(F)cc2)ccc1OCCCCOc1ccc(/C=C/C(=O)c2c(C)nc3ccccc3c2C)cc1OC` ? inactive

What was the test verdict on `NC(=O)c1ccc(-c2c3ccccc3cc3c2ccc2ccccc23)cc1` ? inactive

What was the test verdict on `O=C(N(c1ccccc1)c1ccccc1)n1cc(I)c2nc(Cl)nc(Cl)c21` ? inactive

What was the test verdict on `O=C(Nc1nc(-c2ccc(Cl)cc2)nc2c1sc(=S)n2-c1ccccc1)C(F)(F)F` ? inactive

What was the test verdict on `O=C1/C(=C/c2ccccc2O)CC/C1=C\c1ccccc1O` ? inactive

###

system: SR leukemia; assay: NCI-60 one-dose screen, 48 h; conditions: 10 µM unless noted
This is part of a sample that, as a whole, favours compounds with a hit. Of some 83,000 tested, about 20% had one in any assay. Calls of active or inactive are those of the source. Rule for the calls: active = growth percent below 10; inactive = the rest.
Tick one outcome: true (1) (active), false (0) (inactive)

Look over these answered cases.
INSERT INTO assay_data (molecule, category_label) VALUES
  ('O=C1c2c(c3c4ccccc4[nH]c3c3ccc4ccccc4c23)C(=O)N1CCN1CCOCC1', 'false (0)'),
  ('N#Cc1c(-c2ccccc2)cc(-c2ccc(Nc3nc(Nc4ccc(Cl)cc4)nc(Nc4ccc(Cl)cc4)n3)cc2)nc1N', 'true (1)'),
  ('Cc1sc2nc(NCCc3c[nH]c4ccc(Cl)cc34)[nH]c(=O)c2c1C', 'false (0)'),
  ('Nc1n[nH]c2cccc(C#Cc3cccc(NC(=O)c4cc(F)cc(C(F)(F)F)c4)c3)c12', 'false (0)'),
  ('Nc1ncnc2c1N=C(c1ccc(Br)cc1)CC(c1cccc(Nc3ccnc4cc(C(F)(F)F)ccc34)c1)N2 (centres undefined)', 'false (0)'),
  ('CCn1cc(C(=O)O)c(=O)c2cc(F)c(N3CCN(CC(=O)Nc4ccc(S(=O)(=O)Nc5nccc(C)n5)cc4)C(C)C3)c(F)c21 (centres undefined)', 'false (0)'),
  ('O=C1/C(=C\c2ccc3nccnc3c2)SC(=S)N1CCc1ccc(O)cc1', 'false (0)'),
  ('c1cc2c(ccc3[nH]c(-c4ccc5[nH]ncc5c4)c4c(c32)CCCC4)n1', 'true (1)');

Read the next record carefully.
What was the test verdict on `N#CC(C#N)N=Nc1ccc(Br)cc1` ? true (1)
